- subject of test: Transcriptional coactivator YAP1 (Homo sapiens)
- test name: Inhibition of YAP1 (unknown origin) assessed as disruption in YAP1/OCT4 interaction at 10 uM by ELISA relative to control
Give inhibition for every item shown.
The response must be a number in % with no trailing unit.

## Input Please give measured inhibition of the following entry: `COC(=O)[C@H](Cc1ccc(OCc2ccccc2)cc1)NC(=O)CC1CCN(Cc2ccccc2)CC1`
## Output 57

## Input Return reported inhibition. Input molecule: `COC(=O)[C@H](Cc1ccc(OCc2ccccc2)cc1)NC(=O)CC1CCN(C(=O)Cc2ccccc2)CC1`
## Output 80

## Input Provide measured inhibition value, entry: `COC(=O)[C@H](Cc1ccc(OCc2ccccc2)cc1)NC(=O)CC1CCN(C(=O)CCc2ccccc2)CC1`
## Output 90

## Input Give reported inhibition value for `COC(=O)[C@H](Cc1ccc(OCc2ccccc2)cc1)NC(=O)CC1CCN(C(=O)c2ccccc2)CC1`
## Output 75

## Input For the molecule `O=C(CC1CCN(C(=O)CCc2ccccc2)CC1)N[C@@H](Cc1ccc(OCc2ccccc2)cc1)C(=O)NC1CCC1` , report inhibition.
## Output 80

## Input Tell me its inhibition given `O=C(CC1CCN(C(=O)CCc2ccccc2)CC1)N[C@@H](Cc1ccc(OCc2ccccc2)cc1)C(=O)NC1CC1` as the entry.
## Output 90

## Input Identify the reported inhibition for the following entry. `COC(=O)[C@H](Cc1ccc(OCc2ccccc2)cc1)NC(=O)CC1CCN(C(=O)OC(C)(C)C)CC1`
## Output 80.8

----------
I'd be grateful if you could share measured inhibition for these entries.
- subject of test: UniProt:P46937
- test name: Inhibition of YAP1 (unknown origin) assessed as disruption in YAP1/OCT4 interaction at 50 uM by cell based assay
Kindly answer with a numeric value in %, unit omitted.

## Input Report inhibition for `COC(=O)[C@H](Cc1ccc(OCc2ccccc2)cc1)NC(=O)CC1CCN(C(=O)CCc2ccccc2)CC1`
## Output 90

## Input Item `COC(=O)[C@H](Cc1ccc(OCc2ccccc2)cc1)NC(=O)CC1CCN(Cc2ccccc2)CC1` : provide inhibition
## Output 70

## Input Report inhibition for `O=C(CC1CCN(C(=O)CCc2ccccc2)CC1)N[C@@H](Cc1ccc(OCc2ccccc2)cc1)C(=O)NC1CCC1`
## Output 65

## Input Could you please provide reported inhibition for `COC(=O)[C@H](Cc1ccc(OCc2ccccc2)cc1)NC(=O)CC1CCN(C(=O)Cc2ccccc2)CC1` ? Thanks!
## Output 82

## Input Note down inhibition recorded for `COC(=O)[C@H](Cc1ccc(OCc2ccccc2)cc1)NC(=O)CC1CCN(C(=O)c2ccccc2)CC1`
## Output 84

## Input Quick one: give measured inhibition for `COC(=O)[C@H](Cc1ccc(O)cc1)NC(=O)CC1CCN(C(=O)OC(C)(C)C)CC1`
## Output 70

## Input Dear colleague, please send me the reported inhibition for `CC(C)(C)OC(=O)N1CCC(CC(=O)N[C@@H](Cc2ccc(OCc3ccccc3)cc2)C(=O)O)CC1` when you can.
## Output 74

## Input In one line, give reported inhibition of the entry `CC(C)(C)OC(=O)N1CCC(CC(=O)N[C@@H](Cc2ccc(OCc3ccccc3)cc2)C(=O)NC2CCCCC2)CC1` .
## Output 71

## Input Consider the compound `CC(C)NC(=O)[C@H](Cc1ccc(OCc2ccccc2)cc1)NC(=O)CC1CCN(C(=O)OC(C)(C)C)CC1` . State its measured inhibition.
## Output 83

## Input Recall and state the measured inhibition for `O=C(CC1CCN(C(=O)CCc2ccccc2)CC1)N[C@@H](Cc1ccc(OCc2ccccc2)cc1)C(=O)NC1CCCCC1` .
## Output 70

----------
Exercise: state measured inhibition for each of the compounds provided.
- subject of test: Transcriptional coactivator YAP1 (Homo sapiens) (UniProt P46937)
- Sequence (P46937 whole entry): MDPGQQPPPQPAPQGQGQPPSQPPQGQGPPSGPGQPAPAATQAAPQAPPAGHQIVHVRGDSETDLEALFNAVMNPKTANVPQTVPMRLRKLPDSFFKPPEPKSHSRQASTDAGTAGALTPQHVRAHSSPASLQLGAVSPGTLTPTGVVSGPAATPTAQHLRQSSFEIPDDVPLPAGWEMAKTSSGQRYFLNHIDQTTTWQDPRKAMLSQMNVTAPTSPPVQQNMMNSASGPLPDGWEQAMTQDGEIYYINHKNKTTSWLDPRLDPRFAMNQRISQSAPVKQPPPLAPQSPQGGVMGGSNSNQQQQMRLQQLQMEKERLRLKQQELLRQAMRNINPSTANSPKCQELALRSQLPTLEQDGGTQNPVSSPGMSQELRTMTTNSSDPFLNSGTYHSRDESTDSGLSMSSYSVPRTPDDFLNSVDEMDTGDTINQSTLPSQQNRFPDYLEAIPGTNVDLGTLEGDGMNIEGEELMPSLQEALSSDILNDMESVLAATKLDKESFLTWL
- test name: Inhibition of YAP1 (unknown origin) assessed as disruption in YAP1/OCT4 interaction at 5 uM by ELISA relative to control
Give the quantity in %, number only.

## Input Given `COC(=O)[C@H](Cc1ccc(O)cc1)NC(=O)CC1CCN(C(=O)CCc2ccccc2)CC1` , respond with its inhibition.
## Output 97

## Input Query inhibition for `O=C(CC1CCN(C(=O)CCc2ccccc2)CC1)N[C@@H](Cc1ccc(OCc2ccccc2)cc1)C(=O)NC1CCCC1`
## Output 90

## Input Please report the measured inhibition for `COC(=O)[C@H](Cc1ccc(O)cc1)NC(=O)CC1CCN(C(=O)OC(C)(C)C)CC1`
## Output 78

## Input // Input: `O=C(CC1CCN(C(=O)CCc2ccccc2)CC1)N[C@@H](Cc1ccc(OCc2ccccc2)cc1)C(=O)NCC1CC1` . Output its inhibition only.
## Output 95

## Input Given the compound `CC(C)(C)OC(=O)N1CCC(CC(=O)N[C@@H](Cc2ccc(OCc3ccccc3)cc2)C(=O)NC2CCCCC2)CC1` , write its reported inhibition.
## Output 75

## Input Return reported inhibition. Input compound: `CC(C)NC(=O)[C@H](Cc1ccc(OCc2ccccc2)cc1)NC(=O)CC1CCN(C(=O)OC(C)(C)C)CC1`
## Output 95

----------
Give measured inhibition for each item. Keep answers brief.
- subject of test: Transcriptional coactivator YAP1 (Homo sapiens)
- test name: Inhibition of YAP1 (unknown origin) assessed as disruption in YAP1/OCT4 interaction at 50 uM by cell based assay

## Input For `O=C(CC1CCN(C(=O)CCc2ccccc2)CC1)N[C@@H](Cc1ccc(OCc2ccccc2)cc1)C(=O)NCC1CC1` , write its inhibition.
## Output > 84%

## Input Annotate the compound `O=C(CC1CCN(C(=O)CCc2ccccc2)CC1)N[C@@H](Cc1ccc(OCc2ccccc2)cc1)C(=O)NC1CCCC1` with its measured inhibition.
## Output > 70%

## Input Tell us which inhibition value is on record for `O=C(CC1CCN(C(=O)CCc2ccccc2)CC1)N[C@@H](Cc1ccc(OCc2ccccc2)cc1)C(=O)O`
## Output > 85%

## Input Supply measured inhibition of `O=C(CC1CCN(C(=O)CCc2ccccc2)CC1)N[C@@H](Cc1ccc(OCc2ccccc2)cc1)C(=O)NC1CC1` in your reply.
## Output > 73%

## Input Return value of inhibition for input `COC(=O)[C@H](Cc1ccc(O)cc1)NC(=O)CC1CCN(C(=O)CCc2ccccc2)CC1` , no commentary.
## Output > 77%

## Input Provide inhibition value for the following compound: `COC(=O)[C@H](Cc1ccc(OCc2ccccc2)cc1)NC(=O)CC1CCN(C(=O)OC(C)(C)C)CC1`
## Output > 75%

Where do these numbers come from? They come from ChEMBL document CHEMBL4419178.
